Reference source: BindingDB's records for doi:10.1124/dmd.112.048355

- tgt: Methionine aminopeptidase 2 (Homo sapiens) (UniProt P50579)
- Sequence (P50579 whole entry, looked up): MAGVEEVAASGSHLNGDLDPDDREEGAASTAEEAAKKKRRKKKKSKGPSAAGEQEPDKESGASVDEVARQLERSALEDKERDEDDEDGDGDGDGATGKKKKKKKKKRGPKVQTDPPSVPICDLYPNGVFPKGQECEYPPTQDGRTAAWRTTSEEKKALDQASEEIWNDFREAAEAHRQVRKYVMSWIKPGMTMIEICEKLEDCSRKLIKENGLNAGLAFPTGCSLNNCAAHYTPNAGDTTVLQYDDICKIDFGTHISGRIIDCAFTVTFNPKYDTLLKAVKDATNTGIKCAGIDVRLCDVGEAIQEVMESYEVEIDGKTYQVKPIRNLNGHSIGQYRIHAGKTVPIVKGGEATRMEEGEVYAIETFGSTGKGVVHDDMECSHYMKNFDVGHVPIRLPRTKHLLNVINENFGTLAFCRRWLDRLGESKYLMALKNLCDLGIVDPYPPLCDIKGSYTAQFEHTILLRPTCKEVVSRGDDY
- assay.explanation: Inhibition of MetAP2 activity in HUVEC assessed as inhibition of cell proliferation by MTT assay
attribute.measured: EC50 (nM)

item.smiles: CO[C@@H]1[C@H](OC(=O)N[C@@H](C(N)=O)C(C)(C)O)CC[C@]2(CO2)[C@H]1[C@@]1(C)O[C@@H]1C[C@@H]1OC1(C)C
EC50, nM: 12

[a] CO[C@@H]1[C@H](OC(=O)N[C@@H](C(N)=O)C(C)(C)O)CC[C@]2(CO2)[C@H]1[C@@]1(C)O[C@@H]1C[C@H]1OC1(C)C
[b] CO[C@@H]1[C@H](OC(=O)N[C@@H](C(N)=O)C(C)(C)O)CC[C@]2(CO2)[C@H]1[C@@]1(C)O[C@@H]1CC=C(C)C
q: Between item a and item b , which reported EC50 is smaller? To answer, give the label that identifies your chosen option.
a: b
(b: 0.3 nM, a: 8.8 nM)
